Taken from patent US11566007B2.

target: KRAS G13D (Homo sapiens (Human), UniProt P01116+P62937, G13D); assay: Ras-Raf (BRAF RBD) disruption / FRET / MOA assay, KRAS G13D; assay type: biochemical; conditions: read-out: IC50* KRAS G13D FRET data
Sequence (P01116-2 other isoform, or with tags, fused parts or gaps G13D, one chain of several): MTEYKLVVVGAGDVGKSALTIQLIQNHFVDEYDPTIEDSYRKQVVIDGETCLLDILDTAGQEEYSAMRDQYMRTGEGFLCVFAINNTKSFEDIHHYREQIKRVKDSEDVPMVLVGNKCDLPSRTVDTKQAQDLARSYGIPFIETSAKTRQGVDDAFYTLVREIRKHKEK
pIC50: −log10 of the molar value.
Property: pIC50

compound="C=CC(=O)N1CC[C@@]2(C1)CN(C(=O)N(C)[C@H](C(=O)N[C@H]1Cc3nc(cs3)-c3ccc4c(c3)c(c(-c3cccnc3[C@H](C)OC)n4CC)CC(C)(C)COC(=O)[C@@H]3CCCN(N3)C1=O)C(C)C)CCO2 (atropisomer, axis not shown) [Example A353]" target_desc="KRAS G13D (Homo sapiens (Human), UniProt P01116+P62937, G13D)" property=pIC50 observed_value="6.00 to 7.00"

Item under review: CCn1c(-c2cccnc2[C@H](C)OC)c2c3cc(ccc31)-c1cnc(o1)C[C@H](NC(=O)[C@H](C(C)C)N(C)C(=O)[C@H]1CCN(C(=O)C#CC(C)(C)N(C)C)C1)C(=O)N1CCC[C@H](N1)C(=O)OCC(C)(C)C2 (atropisomer, axis not shown) [Example A692] . Reported pIC50?
< 5.00

Next up: C=CC(=O)N1CC[C@H](C(=O)N(C)[C@H](C(=O)N[C@H]2Cc3cc(cc(C(F)F)c3)-c3ccc4c(c3)c(c(-c3cccnc3[C@H](C)OC)n4CC(F)(F)F)CC(C)(C)COC(=O)[C@@H]3CCCN(N3)C2=O)C(C)C)C1 (atropisomer, axis not shown) [Example A372]
5.00 to 6.00

Next up: C=CC(=O)N1CCO[C@H]2CN(C(=O)N(C)[C@H](C(=O)N[C@H]3C[C@H]4CN(CCO4)c4ccc5c(c4)c(c(-c4cccnc4[C@H](C)OC)n5CC)CC(C)(C)COC(=O)[C@@H]4CCCN(N4)C3=O)C(C)C)C[C@H]21 [Example A562]
5.00 to 6.00

* * *

biological target: KRAS WT (Homo sapiens (Human), UniProt P01116+P62937); test: Ras-Raf (BRAF RBD) disruption / FRET / MOA assay, KRAS WT; type: biochemical; details: read-out: IC50* KRAS WT FRET data
Sequence (P01116-2 other isoform, or with tags, fused parts or gaps): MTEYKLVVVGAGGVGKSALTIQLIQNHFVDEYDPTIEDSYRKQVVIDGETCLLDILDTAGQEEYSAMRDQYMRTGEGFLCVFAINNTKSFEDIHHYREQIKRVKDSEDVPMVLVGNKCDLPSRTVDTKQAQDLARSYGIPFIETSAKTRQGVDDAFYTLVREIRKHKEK
Sequence (P62937 whole entry): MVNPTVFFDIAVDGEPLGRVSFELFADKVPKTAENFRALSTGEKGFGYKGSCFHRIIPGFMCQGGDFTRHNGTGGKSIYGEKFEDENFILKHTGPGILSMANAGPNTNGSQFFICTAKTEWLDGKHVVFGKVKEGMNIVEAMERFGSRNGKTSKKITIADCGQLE
pIC50: −log10 of the molar value.
# pIC50 annotations

compound="C=CC(=O)C1CC[C@H](C(=O)N(C)[C@H](C(=O)N[C@H]2Cc3cc(O)cc(c3)-c3ccc4c(c3)c(c(-c3cnn(C)c3[C@H](C)OC)n4CC)CC(C)(C)COC(=O)[C@@H]3CCCN(N3)C2=O)C(C)C)C1 (stereo partly drawn)" observed_value="6.00 to 7.00"

Item under review: C=CC(=O)N1CC2(C1)CN(C(=O)N(C)[C@H](C(=O)N[C@H]1Cc3nc(cs3)-c3ccc4c(c3)c(c(-c3cccnc3[C@H](C)OC)n4CC)CC(C)(C)COC(=O)[C@@H]3CCCN(N3)C1=O)C(C)C)CCO2 (atropisomer, axis not shown) . Reported pIC50?
6.00 to 7.00

* * *

target: KRAS G12D (Homo sapiens (Human), UniProt P01116+P62937, G12D); assay: Ras-Raf (BRAF RBD) disruption / FRET / MOA assay, KRAS G12D; assay type: biochemical; conditions: Ras-Raf disruption/FRET/MOA assay; class symbols; read-out: KRAS G12D FRET data IC50
Sequence (P01116-2 other isoform, or with tags, fused parts or gaps G12D): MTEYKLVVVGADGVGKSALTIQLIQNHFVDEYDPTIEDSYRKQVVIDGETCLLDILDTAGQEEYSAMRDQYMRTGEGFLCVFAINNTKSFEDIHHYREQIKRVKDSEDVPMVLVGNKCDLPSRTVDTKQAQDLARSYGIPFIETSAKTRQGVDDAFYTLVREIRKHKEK
Sequence (P62937 whole entry): as the sequence (P62937 whole entry) above
pIC50: −log10 of the molar value.
# pIC50 annotations

compound="C=CS(=O)(=O)N1CCC2(CCN([C@H](C(=O)N[C@H]3Cc4cc(O)cc(c4)-c4ccc5c(c4)c(c(-c4cccnc4[C@H](C)OC)n5CC)CC(C)(C)COC(=O)[C@@H]4CCCN(N4)C3=O)C(C)C)C2=O)CC1 (atropisomer, axis not shown)" property=pIC50 observed_value="5.00 to 6.00"

Item under review: `C=CC(=O)N1CC2CCC1CN2C(=O)N(C)[C@H](C(=O)N[C@H]1Cc2nc(cs2)-c2ccc3c(c2)c(c(-c2cccnc2[C@H](C)OC)n3CC)CC(C)(C)COC(=O)[C@@H]2CCCN(N2)C1=O)C(C)C` . Reported pIC50?
5.00 to 6.00
